Target: T1, rGyr_hel (reverse gyrase helicase-like domain) (Thermotoga maritima, UniProt O51934 59-541)
T1 sequence: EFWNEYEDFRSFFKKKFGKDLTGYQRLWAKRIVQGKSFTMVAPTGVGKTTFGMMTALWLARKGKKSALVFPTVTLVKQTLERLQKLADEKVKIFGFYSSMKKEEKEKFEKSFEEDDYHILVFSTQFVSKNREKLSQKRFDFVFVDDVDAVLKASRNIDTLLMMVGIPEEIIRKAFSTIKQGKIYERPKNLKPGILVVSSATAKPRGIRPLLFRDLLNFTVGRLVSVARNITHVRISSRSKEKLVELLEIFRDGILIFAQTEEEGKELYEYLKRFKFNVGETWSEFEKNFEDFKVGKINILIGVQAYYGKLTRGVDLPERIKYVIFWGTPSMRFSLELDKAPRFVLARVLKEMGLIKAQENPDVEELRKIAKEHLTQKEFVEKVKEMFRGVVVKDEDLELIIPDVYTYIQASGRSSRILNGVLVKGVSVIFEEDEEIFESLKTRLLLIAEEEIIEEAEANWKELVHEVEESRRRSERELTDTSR
Assay: fluorescence anisotropy
readout.type: Kd (µM)
Quick reminder: number only, in µM, skip the unit.

Measured Kd of 60-base ssDNA (ssDNA) DNA: AAGCCAAGCTTCTAGAGTCAGCCCGTGATATTCATTACTTCTTATCCTAGGATCCCCGTT : 0.31
